Test system: CAKI-1 renal
assay: NCI tumour cell line growth inhibition, 48 h
measured-parameter: TGI (µM)
Answers are plain numbers, in µM.

compound=Clc1ccc(-c2cn3c(nc4ccccc43)c(-c3ccccc3)n2)cc1 assay_result=32.1

I have 5 compounds here; please give me TGI for each one.
1. CC1[C@@]2(CCC(C)(C)O2)O[C@@H]2C=C3C4CCC5Cc6nc7c(nc6C[C@@]5(C)C4C[C@H](O)[C@@]3(C)[C@]12O)CC1CCC2C3=C[C@H]4O[C@@]5(O[C@@](C)(CO)C[C@@H]5O)C(C)[C@@]4(O)[C@]3(C)[C@@H](O)CC2[C@]1(C)C7 (stereo partly drawn)
2. Cc1ccc(-c2nc(NCCOCCOCCN)nc(N3CCN(c4ccccn4)CC3)n2)cc1
3. COc1cc(-c2nc(-c3ccccc3)c(-c3ccccc3)[nH]2)cc(OC)c1O
4. CCCCCCCCCCCC1N=C(N)N=C(N)N1c1cccc(Br)c1 (stereo not drawn)
5. CN1C2C=CC(=O)C1C1C(=O)N(c3ccccc3)C(=O)C12 (stereo not drawn)

Response given:
1. 0.66
2. 33.7
3. 55.2
4. 4.12
5. 4.27
